- tgt: human mGlu2 receptor (Homo sapiens)
- Construct: expressed in transfected cells; host or cells: CHO cells
- Sequence (Q14416 19-872): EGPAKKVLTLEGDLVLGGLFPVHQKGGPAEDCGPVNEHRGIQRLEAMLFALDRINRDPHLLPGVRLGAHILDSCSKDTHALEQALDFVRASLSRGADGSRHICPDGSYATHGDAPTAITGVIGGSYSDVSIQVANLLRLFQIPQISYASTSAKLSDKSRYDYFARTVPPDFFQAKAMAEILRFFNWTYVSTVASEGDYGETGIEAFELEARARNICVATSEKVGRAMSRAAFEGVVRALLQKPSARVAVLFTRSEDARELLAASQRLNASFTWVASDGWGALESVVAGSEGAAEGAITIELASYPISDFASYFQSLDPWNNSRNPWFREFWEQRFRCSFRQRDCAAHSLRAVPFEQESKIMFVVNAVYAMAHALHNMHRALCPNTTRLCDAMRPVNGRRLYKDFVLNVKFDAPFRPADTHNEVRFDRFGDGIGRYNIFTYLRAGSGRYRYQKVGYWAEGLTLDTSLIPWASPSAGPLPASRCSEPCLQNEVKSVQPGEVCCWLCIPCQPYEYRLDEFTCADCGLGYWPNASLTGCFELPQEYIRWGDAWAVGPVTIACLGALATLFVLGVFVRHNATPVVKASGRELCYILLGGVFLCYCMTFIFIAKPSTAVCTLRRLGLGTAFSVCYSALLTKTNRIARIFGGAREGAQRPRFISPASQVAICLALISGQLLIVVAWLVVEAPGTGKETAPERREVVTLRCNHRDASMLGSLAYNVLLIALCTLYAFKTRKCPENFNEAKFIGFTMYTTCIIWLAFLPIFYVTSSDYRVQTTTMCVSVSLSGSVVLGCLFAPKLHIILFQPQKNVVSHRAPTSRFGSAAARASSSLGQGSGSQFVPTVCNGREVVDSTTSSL
- assay info: [35S]GTPγS binding assay (mGluR2 negative allosteric modulation, glutamate ~EC80 60 μM)
- Type: biochemical
- test parameters: maximal % inhibition relative to the control glutamate response (EC80 glutamate); read-out: GTPγS-hmGluR2 anGT Emax

compound | Emax, %
Cc1cncc(C(=O)Nc2cnn3c2C(=O)N(c2ccc(C(F)(F)F)c(Cl)c2)C[C@@H]3C)c1C | 109
C[C@H]1CN(c2ccccc2)C(=O)c2c(NC(=O)c3ccnc(N)c3)cnn21 | 111
Cc1cc(C(=O)Nc2cnn3c2C(=O)N(c2ccc(C(F)(F)F)c(Cl)c2)C[C@@H]3C)nc(N)n1 | 101
COc1cccc(C(=O)Nc2cnn3c2C(=O)N(c2ccc(C(F)(F)F)cc2)C[C@@H]3C)n1 | 106
Cc1cc(C(=O)Nc2cnn3c2C(=O)N(c2ccc(C(F)(F)F)cc2)C[C@@H]3C)nc(N)n1 | 107
Cc1cc(C(=O)Nc2cnn3c2C(=O)N(c2ccc(C(F)(F)F)cc2)C[C@@H]3C)[nH]n1 | 100
Cc1ccncc1C(=O)Nc1cnn2c1C(=O)N(c1ccc(C(F)(F)F)c(C)c1)C[C@@H]2C | 107
C[C@H]1CN(c2ccc(C(F)(F)F)c(Cl)c2)C(=O)c2c(NC(=O)c3cnccn3)cnn21 | 108
C[C@H]1CN(c2ccc(Cl)c(Cl)c2)C(=O)c2c(NC(=O)c3ccc(N)nc3)cnn21 | 110
C[C@H]1CN(c2ccc(C(F)(F)F)cc2)C(=O)c2c(NC(=O)c3ccc(N)nc3)cnn21 | 110
Cc1cc(C(=O)Nc2cnn3c2C(=O)N(c2ccc(C(F)(F)F)c(Cl)c2)C[C@@H]3C)cnc1N | 108
C[C@H]1CN(c2ccc(C(F)(F)F)cc2)C(=O)c2c(NC(=O)c3nccnc3N)cnn21 | 110
COc1ccccc1C(=O)Nc1cnn2c1C(=O)N(c1ccc(C(F)(F)F)c(OC)n1)C[C@@H]2C | 103
C[C@H]1CN(c2ccc(Cl)c(OC(F)F)c2)C(=O)c2c(NC(=O)c3ccc(N)nc3)cnn21 | 117
Cc1cnc(NC(C)(C)C)c(C(=O)Nc2cnn3c2C(=O)N(c2ccc(C(F)(F)F)c(Cl)c2)C[C@@H]3C)c1 | 103
C[C@H]1CN(c2ccc(C(F)(F)F)cc2)C(=O)c2c(NC(=O)c3cccnc3NCCO)cnn21 (racemic) | 103
Cc1cc(C(=O)Nc2cnn3c2C(=O)N(c2ccc(C(F)(F)F)c(F)c2)C[C@@H]3C)cc(C)n1 | 108
C[C@H]1CN(c2ccc(C(F)(F)F)cc2)C(=O)c2c(NC(=O)c3cn[nH]c3)cnn21 | 107
C[C@H]1CN(c2ccc(C(F)(F)F)cc2)C(=O)c2c(NC(=O)c3ccc(F)cc3)cnn21 | 101
Cc1cc(C(=O)Nc2cnn3c2C(=O)N(c2ccc(C(F)(F)F)cc2)C[C@@H]3C)ccn1 | 100
COCc1cncc(C(=O)Nc2cnn3c2C(=O)N(c2ccc(C(F)(F)F)c(Cl)c2)C[C@@H]3C)c1 | 108
C[C@H]1CN(c2ccc(Cl)c(Cl)c2)C(=O)c2c(NC(=O)c3cnccn3)cnn21 | 107
Cc1cc(C(=O)Nc2cnn3c2C(=O)N(c2ccc(C(F)(F)F)c(Cl)c2)C[C@@H]3C)cnc1NC(C)(C)C | 105
Cc1cc(N2C[C@H](C)n3ncc(NC(=O)c4cccnc4N)c3C2=O)ccc1C(F)(F)F | 110
Cc1cncc(C(=O)Nc2cnn3c2C(=O)N(c2ccc(C(F)(F)F)cc2)C[C@@H]3C)c1 | 114
Cc1ccncc1C(=O)Nc1cnn2c1C(=O)N(c1ccc(C(F)(F)F)c(Cl)c1)C[C@@H]2C | 109
C[C@H]1CN(c2ccc(C(F)(F)F)cc2)C(=O)c2c(NC(=O)c3ccno3)cnn21 | 103
Cc1nccc(C(=O)Nc2cnn3c2C(=O)N(c2ccc(C(F)(F)F)c(Cl)c2)C[C@@H]3C)c1C | 104
C[C@H]1CN(c2ccc(OC(F)(F)F)cc2)C(=O)c2c(NC(=O)c3cccnc3N)cnn21 | 109
COc1cc(N2C[C@H](C)n3ncc(NC(=O)c4cncc(C)c4)c3C2=O)ccc1C(F)(F)F | 104
